target: T1, recombinant human Cyclophilin A (CypA) (human, UniProt P62937 1-165); assay: SPR; details: both partners purified
T1 construct: also called human peptidyl prolyl isomerase CypA; source: E. coli BL21(DE3), pET11c, purified (DEAE-Sepharose flow-through, MonoS cation exchange)
T1 sequence (P62937 whole entry): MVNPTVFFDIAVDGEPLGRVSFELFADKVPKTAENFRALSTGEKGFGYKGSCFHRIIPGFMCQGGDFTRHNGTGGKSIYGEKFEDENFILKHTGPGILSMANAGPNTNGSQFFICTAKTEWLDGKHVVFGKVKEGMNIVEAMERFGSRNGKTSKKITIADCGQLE
Listed here: items and their measured kd2 (two-state model, backward rate).
Expressed in s⁻¹, but write only the number.

Solved cases below.
Lookup result for ELKSEAVRHFPRIWLH (source: synthetic peptide) [synthetic HIV-1 Vpr peptide sVpr^25-40] ; measured kd2 (two-state model, backward rate): 0.0173

Lookup result for RHFPRIW (source: synthetic peptide) [synthetic HIV-1 Vpr peptide sVpr^32-38] ; measured kd2 (two-state model, backward rate): 0.0023

Lookup result for HFPRI (source: synthetic peptide) [synthetic HIV-1 Vpr peptide sVpr^33-37] ; measured kd2 (two-state model, backward rate): 0.0025

Lookup result for AVRHFPRIWLH (source: synthetic peptide) [synthetic HIV-1 Vpr peptide sVpr^30-40] ; measured kd2 (two-state model, backward rate): 0.0053

Here's the next entry for you.
Lookup result for ELLEELKSEAVRHFPRIWLH (source: synthetic peptide) [synthetic HIV-1 Vpr peptide sVpr^21-40] ; measured kd2 (two-state model, backward rate): 0.011
